molecular target: full length Keap1 protein / full length NRF2 protein (Homo sapiens, UniProt Q14145); construct: full length NRF2 protein and full length Keap1 protein (Keap1 exists a dimer) are used; His; test: NRF2-Keap1 TR-FRET Assay; assay type: binding; details: 25 nM Keap1-FlagHis and 50 nM biotin-NRF2 added
Sequence (Q14145 whole entry): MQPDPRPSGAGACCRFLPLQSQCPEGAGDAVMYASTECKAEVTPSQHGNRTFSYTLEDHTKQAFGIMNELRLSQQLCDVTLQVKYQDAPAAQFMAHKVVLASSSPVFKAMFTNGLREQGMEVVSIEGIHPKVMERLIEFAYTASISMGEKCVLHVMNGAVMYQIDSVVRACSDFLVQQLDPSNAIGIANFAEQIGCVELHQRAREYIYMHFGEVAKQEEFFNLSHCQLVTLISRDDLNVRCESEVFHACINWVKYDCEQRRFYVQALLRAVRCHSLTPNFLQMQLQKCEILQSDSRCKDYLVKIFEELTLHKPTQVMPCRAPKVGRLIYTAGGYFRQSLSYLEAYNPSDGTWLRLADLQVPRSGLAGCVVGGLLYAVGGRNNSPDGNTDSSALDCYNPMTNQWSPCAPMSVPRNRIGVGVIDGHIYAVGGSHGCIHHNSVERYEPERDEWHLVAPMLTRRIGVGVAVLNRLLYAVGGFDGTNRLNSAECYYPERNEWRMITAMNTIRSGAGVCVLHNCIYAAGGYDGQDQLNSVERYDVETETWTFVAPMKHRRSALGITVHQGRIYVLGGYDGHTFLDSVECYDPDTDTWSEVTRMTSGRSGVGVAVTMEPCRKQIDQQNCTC
QUANTITY_MEASURED: IC50

Here's what some known entries look like.
[
  {
    "MOLECULE": "CCC[C@@H]1CCCCN1C(=O)c1cccc(-c2cccc(-n3nc(C)c(C(=O)O)c3C3CC3)c2)c1",
    "IC50": "1000 to 10000 nM"
  },
  {
    "MOLECULE": "Cn1cc([C@@H]2C[C@H]2c2c(C(=O)O)cnn2-c2cccc(-c3cccc(OCC4CCCCC4C(F)(F)F)c3)c2)nn1 (mixture of isomers)",
    "IC50": "100 to 1000 nM"
  }
]

Consider the record given below.
Hey, full length Keap1 protein / full length NRF2 protein (Homo sapiens, UniProt Q14145) data for Cn1cc([C@@H]2C[C@H]2c2c(C(=O)O)cnn2-c2cccc(-c3cccc(CN4CCCCC4)c3)c2)nn1 (racemic) : IC50 came out at 1000 to 10000 nM

* * *

molecular target: Keap1 Kelch domain (321-609) / TAMRA-labeled 16mer NRF2 peptide (ETGE motif) (Homo sapiens); construct: the Kelch domain (321-609) of Keap1 is used; experiment: NRF2-Keap1 FP Assay (Keap1 Kelch fluorescence polarization); settings: 20 nM Keap1 (321-609), 8 nM Tamra labeled peptide
Sequence (Q14145 321-609): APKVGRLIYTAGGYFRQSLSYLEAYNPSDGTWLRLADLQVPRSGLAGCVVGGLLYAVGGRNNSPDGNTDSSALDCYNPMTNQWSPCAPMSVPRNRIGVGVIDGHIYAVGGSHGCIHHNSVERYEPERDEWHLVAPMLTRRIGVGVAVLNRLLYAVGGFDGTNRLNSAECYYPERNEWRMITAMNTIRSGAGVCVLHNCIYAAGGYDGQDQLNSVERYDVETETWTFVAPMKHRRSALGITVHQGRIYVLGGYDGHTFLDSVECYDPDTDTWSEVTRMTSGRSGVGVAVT
pIC50: −log10 of the molar value.
QUANTITY_MEASURED: pIC50

Solved cases below.
[
  {
    "COMPOUND": "C[C@H](Oc1cccc(-c2cccc(-n3ncc(C(=O)OCOC(=O)c4ccccc4)c3[C@@H]3C[C@H]3c3cn(C)nn3)c2)c1)C1CCCCC1 [Example 111]",
    "OBSERVED_RESULT": "< 5.00"
  },
  {
    "COMPOUND": "CCOC(=O)c1cnn(-c2cccc(-c3cccc(O[C@@H](C)C4CCCCC4)c3)c2)c1[C@@H]1C[C@H]1c1cn(C)nn1 [Example 105]",
    "OBSERVED_RESULT": "< 5.00"
  },
  {
    "COMPOUND": "CCCN(CC1CC1)C(=O)c1cccc(-c2cccc(-n3ncc(C(=O)O)c3C3CC3)c2)c1F [Example 9]",
    "OBSERVED_RESULT": "7.00 to 8.00"
  },
  {
    "COMPOUND": "CC1(C)CCc2cnn(-c3cccc(-c4cccc(-n5ncc(C(=O)O)c5C5CC5)c4)c3)c21 [Example 63]",
    "OBSERVED_RESULT": "6.00 to 7.00"
  },
  {
    "COMPOUND": "CCn1cc([C@H]2C[C@@H]2c2c(C(=O)O)cnn2-c2cc(OC)cc(-c3cccc(OC(C)C4CCCCC4)c3)c2)nn1 (some centres unmarked) [Example 193]",
    "OBSERVED_RESULT": "6.00 to 7.00"
  },
  {
    "COMPOUND": "O=C(O)c1cnn(-c2cccc(-c3cccc(C(=O)N4CCCC(C(F)(F)F)C4)c3F)c2)c1C1CC1 (centres unmarked) [Example 18]",
    "OBSERVED_RESULT": "6.00 to 7.00"
  },
  {
    "COMPOUND": "CC1(C)CCc2cnn(-c3cccc(-c4cccc(-n5ncc(C(=O)O)c5C(F)(F)F)n4)c3)c21 [Example 204]",
    "OBSERVED_RESULT": "6.00 to 7.00"
  },
  {
    "COMPOUND": "CCC[C@@H]1CCCCN1C(=O)c1cccc(-c2cccc(-n3ncc(C(=O)O)c3[C@@H]3C[C@H]3c3cc(C)no3)c2)c1F (racemic) [Example 117]",
    "OBSERVED_RESULT": "7.00 to 8.00"
  }
]

With those in mind, consider the next compound.
CCC[C@@H]1CCCCN1C(=O)c1cc(F)cc(-c2cccc(-n3ncc(C(=O)O)c3C3CC3c3cn(C)nn3)c2)c1 (some centres unmarked) [Example 198] yielded pIC50 of 7.00 to 8.00
